- System: Escherichia coli TOP10;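 further: peptides expressed intracellularly from a pBAD plasmid library in pooled LB shake-flask culture, induced with 0.3% L-arabinose, DNA abundance read by NGS, three biological replicates, DESeq2 with apeglm shrinkage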
- protocol details: shrunken log2 fold change of peptide-encoding DNA abundance (4.5 h post-induction vs induction); higher = less antimicrobial activity (less host growth inhibition)
- condition summary: time post-induction: 4.5 h; library: site-saturation at positions 5, 18, 19, 20
reported property: shrunken log2 fold change

RRIRCRPPRLPRPRPRPCYGPRP :: -0.28
RRIRLRPPRLPRPRPRPFVIPRP :: -0.214
RRIRRRPPRLPRPRPRPAFAPRP :: 0.456

What value of measured shrunken log2 fold change is listed for `RRIRCRPPRLPRPRPRPTDIPRP` ?
-0.623

What value of measured shrunken log2 fold change is listed for `RRIRARPPRLPRPRPRPCFKPRP` ?
0.0174
